SUBJECT_OF_TEST: CYP3A4 (Homo sapiens, UniProt P08684)
Sequence (P08684 whole entry): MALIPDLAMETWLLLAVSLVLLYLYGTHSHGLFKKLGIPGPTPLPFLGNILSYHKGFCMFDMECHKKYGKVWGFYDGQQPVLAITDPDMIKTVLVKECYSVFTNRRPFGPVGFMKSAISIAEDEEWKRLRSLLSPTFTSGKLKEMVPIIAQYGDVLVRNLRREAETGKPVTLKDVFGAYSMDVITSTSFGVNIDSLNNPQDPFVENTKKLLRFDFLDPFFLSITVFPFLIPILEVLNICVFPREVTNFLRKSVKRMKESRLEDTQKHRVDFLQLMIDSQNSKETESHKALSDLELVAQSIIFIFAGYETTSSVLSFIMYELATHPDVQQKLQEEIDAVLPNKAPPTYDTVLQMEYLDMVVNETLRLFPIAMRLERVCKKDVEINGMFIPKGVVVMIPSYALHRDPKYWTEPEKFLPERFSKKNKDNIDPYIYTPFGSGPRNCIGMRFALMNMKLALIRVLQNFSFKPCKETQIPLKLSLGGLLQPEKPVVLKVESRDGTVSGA
TEST_DESCRIPTION: Ratio of IC50 for CYP3A4 (unknown origin) co-incubated with NADPH to IC50 for CYP3A4 (unknown origin) pretreated with NADPH
CONDITION_SET: read-out: Ratio IC50
OBSERVABLE: IC50 shift

Query :: Kindly state the measured IC50 shift obtained for CCC[C@H]1N(C(=O)c2c(C(F)(F)F)ccnc2O)CCC[C@@]1(Oc1csc(C(F)(F)F)c1)C(=O)N1CCN(c2ccccc2OC)CC1 with CYP3A4 (Homo sapiens, UniProt P08684).
Result :: 2

Query :: Kindly state the measured IC50 shift obtained for CCC[C@H]1N(C(=O)c2c(C(F)(F)F)ccc[n+]2[O-])CCC[C@@]1(Oc1csc(C(F)(F)F)c1)C(=O)N1CCN(c2ccccc2OCCO)CC1 with CYP3A4 (Homo sapiens, UniProt P08684).
Result :: 26

Query :: Kindly state the measured IC50 shift obtained for C=CCOc1nccc(C(F)(F)F)c1C(=O)N1CCC[C@@](Oc2csc(C(F)(F)F)c2)(C(=O)N2CCN(c3ccccc3OCCO)CC2)[C@H]1CCC with CYP3A4 (Homo sapiens, UniProt P08684).
Result :: 9

Query :: Kindly state the measured IC50 shift obtained for CCC[C@H]1N(C(=O)c2cnccc2C(F)(F)F)CCC[C@@]1(Oc1csc(C(F)(F)F)c1)C(=O)N1CCN(c2ccccc2OC)CC1 with CYP3A4 (Homo sapiens, UniProt P08684).
Result :: 33

Query :: Kindly state the measured IC50 shift obtained for CCC[C@H]1N(C(=O)c2c(C(F)(F)F)ccnc2O)CCC[C@@]1(Oc1csc(C(F)(F)F)c1)C(=O)N1CCN(c2ccccc2OCCO)CC1 with CYP3A4 (Homo sapiens, UniProt P08684).
Result :: 1

Query :: Kindly state the measured IC50 shift obtained for CCC[C@H]1N(C(=O)c2c(C(F)(F)F)ccnc2O)CCC[C@@]1(Oc1csc(C(F)(F)F)c1)C(=O)N1CCN(c2ccccc2OCCCC(=O)O)CC1 with CYP3A4 (Homo sapiens, UniProt P08684).
Result :: 1

---

SUBJECT_OF_TEST: CYP3A4 (Homo sapiens, UniProt P08684)
TEST_DESCRIPTION: Ratio of IC50 for CYP3A4 (unknown origin) co-incubated with NADPH to IC50 for CYP3A4 (unknown origin) pretreated with NADPH
CONDITION_SET: read-out: Ratio IC50
# note: exactly 90 is not below, so it is Not met; use Met for IC50 shift strictly under it

Query :: Find out if reported IC50 shift for CCC[C@H]1N(C(=O)c2ncccc2C(F)(F)F)CCC[C@@]1(Oc1csc(C(F)(F)F)c1)C(=O)N1CCN(c2ccccc2OCCO)CC1 is less than 90
Result :: Not met

Query :: Find out if reported IC50 shift for CCC[C@H]1N(C(=O)c2c(C(F)(F)F)ccnc2OCCO)CCC[C@@]1(Oc1csc(C(F)(F)F)c1)C(=O)N1CCN(c2ccccc2OCCO)CC1 is less than 90
Result :: Met

Query :: Find out if reported IC50 shift for CCC[C@H]1N(C(=O)c2c(F)cccc2C(F)(F)F)CCC[C@@]1(Oc1csc(C(F)(F)F)c1)C(=O)N1CCN(c2ccccc2OCCO)CC1 is less than 90
Result :: Not met

Query :: Find out if reported IC50 shift for CCC[C@H]1N(C(=O)c2c(C(F)(F)F)ccnc2OCCN(C)C)CCC[C@@]1(Oc1csc(C(F)(F)F)c1)C(=O)N1CCN(c2ccccc2OCCO)CC1 is less than 90
Result :: Met

Query :: Find out if reported IC50 shift for CCC[C@H]1N(C(=O)c2cnccc2C)CCC[C@@]1(Oc1csc(C(F)(F)F)c1)C(=O)N1CCN(c2ccccc2OCCO)CC1 is less than 90
Result :: Met

Query :: Find out if reported IC50 shift for CCC[C@H]1N(C(=O)c2cnccc2C(F)(F)F)CCC[C@@]1(Oc1csc(C(F)(F)F)c1)C(=O)N1CCN(c2ccccc2OCCCC(=O)O)CC1 is less than 90
Result :: Met

Query :: Find out if reported IC50 shift for CCC[C@H]1N(C(=O)c2c(C(F)(F)F)ccnc2OCC(=O)O)CCC[C@@]1(Oc1csc(C(F)(F)F)c1)C(=O)N1CCN(c2ccccc2OCCO)CC1 is less than 90
Result :: Met

---

SUBJECT_OF_TEST: Tumour suppressor p53/oncoprotein Mdm2 (Homo sapiens, UniProt Q00987)
Sequence (P04637 whole entry): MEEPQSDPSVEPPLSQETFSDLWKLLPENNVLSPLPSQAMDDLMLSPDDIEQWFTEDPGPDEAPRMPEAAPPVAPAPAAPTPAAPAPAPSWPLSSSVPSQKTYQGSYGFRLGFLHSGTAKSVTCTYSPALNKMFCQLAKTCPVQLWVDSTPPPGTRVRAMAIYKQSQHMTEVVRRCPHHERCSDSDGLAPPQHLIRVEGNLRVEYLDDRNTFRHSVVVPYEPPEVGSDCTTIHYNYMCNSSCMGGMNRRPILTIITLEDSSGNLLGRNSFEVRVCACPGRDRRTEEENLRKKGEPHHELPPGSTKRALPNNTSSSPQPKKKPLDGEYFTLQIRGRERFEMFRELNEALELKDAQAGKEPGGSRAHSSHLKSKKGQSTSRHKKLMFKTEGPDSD
Sequence (Q00987 whole entry): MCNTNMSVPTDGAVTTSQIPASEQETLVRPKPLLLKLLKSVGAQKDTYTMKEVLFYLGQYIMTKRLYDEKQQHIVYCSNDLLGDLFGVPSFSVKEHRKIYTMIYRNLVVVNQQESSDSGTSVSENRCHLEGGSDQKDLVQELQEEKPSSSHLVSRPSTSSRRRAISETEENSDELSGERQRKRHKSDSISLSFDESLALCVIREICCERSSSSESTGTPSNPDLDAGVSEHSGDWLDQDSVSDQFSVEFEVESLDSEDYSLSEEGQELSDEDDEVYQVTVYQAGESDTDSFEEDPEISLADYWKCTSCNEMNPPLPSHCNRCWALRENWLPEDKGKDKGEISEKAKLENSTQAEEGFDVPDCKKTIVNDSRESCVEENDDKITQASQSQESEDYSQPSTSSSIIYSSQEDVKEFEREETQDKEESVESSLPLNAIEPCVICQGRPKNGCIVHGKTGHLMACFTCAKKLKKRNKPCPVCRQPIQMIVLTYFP
TEST_DESCRIPTION: Inhibition of HDM2-p53 (unknown origin) protein-protein interaction by fluorescence polarization peptide displacement assay
OBSERVABLE: pIC50
Scale note: pIC50 = -log10(concentration in M).

Query :: Requested field: pIC50. Item: C=CCOc1nccc(C(F)(F)F)c1C(=O)N1CCC[C@@](Oc2csc(C(F)(F)F)c2)(C(=O)N2CCN(c3ccccc3OCCO)CC2)[C@H]1CCC
Result :: 7.55

Query :: Requested field: pIC50. Item: CCC[C@H]1N(C(=O)c2cnccc2C)CCC[C@@]1(Oc1csc(C(F)(F)F)c1)C(=O)N1CCN(c2ccccc2OCCO)CC1
Result :: 7.47

Query :: Requested field: pIC50. Item: CCC[C@H]1N(C(=O)c2c(C(F)(F)F)ccnc2OCC(=O)NC)CCC[C@@]1(Oc1csc(C(F)(F)F)c1)C(=O)N1CCN(c2ccccc2OCCO)CC1
Result :: 6.61

Query :: Requested field: pIC50. Item: CCC[C@H]1N(C(=O)c2ncccc2C(F)(F)F)CCC[C@@]1(Oc1csc(C(F)(F)F)c1)C(=O)N1CCN(c2ccccc2OCCO)CC1
Result :: 8.15

Query :: Requested field: pIC50. Item: CCC[C@H]1N(C(=O)c2c(C(F)(F)F)ccnc2O)CCC[C@@]1(Oc1csc(C(F)(F)F)c1)C(=O)N1CCN(c2ccccc2OCCCC(=O)O)CC1
Result :: 7.96

Query :: Requested field: pIC50. Item: CCC[C@H]1N(C(=O)c2c(C(F)(F)F)ccnc2OCCO)CCC[C@@]1(Oc1csc(C(F)(F)F)c1)C(=O)N1CCN(c2ccccc2OCCO)CC1
Result :: 6.99

Query :: Requested field: pIC50. Item: CCC[C@H]1N(C(=O)c2c(N)cccc2C(F)(F)F)CCC[C@@]1(Oc1csc(C(F)(F)F)c1)C(=O)N1CCN(c2ccccc2OCCO)CC1
Result :: 5.17
